# Study Target: rat μ (C6-MOR) opioid receptor (Rattus norvegicus)
# Sequence (P33535 whole entry): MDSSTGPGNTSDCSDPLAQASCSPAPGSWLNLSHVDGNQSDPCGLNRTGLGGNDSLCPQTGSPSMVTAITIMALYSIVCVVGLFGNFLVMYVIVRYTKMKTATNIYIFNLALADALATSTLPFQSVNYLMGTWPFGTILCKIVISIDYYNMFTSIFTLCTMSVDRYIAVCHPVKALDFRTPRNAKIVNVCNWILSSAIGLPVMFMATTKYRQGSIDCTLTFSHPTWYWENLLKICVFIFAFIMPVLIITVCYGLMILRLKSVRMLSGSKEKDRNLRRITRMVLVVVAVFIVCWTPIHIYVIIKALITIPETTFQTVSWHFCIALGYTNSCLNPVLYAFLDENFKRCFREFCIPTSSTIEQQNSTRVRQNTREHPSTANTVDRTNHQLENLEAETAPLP
# Test Description: Stimulation of [35S]GTPγS binding, MOR
# Condition Details: [35S]GTPγS binding, C6-MOR membranes; mean ± standard error
Endpoint: EC50 (nM)
Numeric answer only, unit nM assumed.

# query: EC50 of entry CC(=O)N1CC[C@@H](NC(=O)[C@@H](N)Cc2c(C)cc(O)cc2C)c2cc(Oc3ccccc3)ccc21
6.49

Would you mind telling me what EC50 value was observed for Cc1cc(O)cc(C)c1C[C@H](N)C(=O)N[C@@H]1CCNc2c(CN3CCNCC3)cc(Cc3ccccc3)cc21 ?
8

Fill in the blank: the reported EC50 of Cc1cc(O)cc(C)c1C[C@H](N)C(=O)N[C@H]1c2cc(Cc3ccccc3)ccc2NC[C@H]1C is ____.
3.14

EC50 lookup needed for Cc1cc(O)cc(C)c1C[C@H](N)C(=O)N(C1CC1)C1CCNc2ccc(Cc3ccccc3)cc21 (stereo partly drawn) , thanks.
28.4

I would be grateful if you could share the reported EC50 for Cc1cc(O)cc(C)c1C[C@H](N)C(=O)N[C@@H]1CCNc2c1cc(Cc1ccccc1)cc2C(C)(C)C .
9.87

May I ask what EC50 has been recorded for COc1ccccc1Oc1ccc2c(c1)[C@H](NC(=O)[C@@H](N)Cc1c(C)cc(O)cc1C)CCN2 ?
46.7
